As shown below, each of these molecules has a reported IC50 value.
- protocol.description: NFkB reporter suppression in cystic fibrosis bronchial cells – cell-based, uHTS hits, panel, cytotoxicity readout, dose response (AID 624344)
- reported.conditions: CF bronchial epithelial cells, PAF-induced NFkB reporter inhibition; with PAF, mean of runs

molecule | reported.measurement
Cc1ccc(NC(=O)CSc2ncnc3ccccc23)cc1S(=O)(=O)N1CCOCC1 | 4.14 µM
CCN1CCN(Cc2ccc(NC(=O)c3ccc(C)c(NC(=O)c4ccc5n[nH]nc5c4)c3)cc2C(F)(F)F)CC1 | 2.58 µM
N#CC(C#N)=C1SC(=Nc2ccccc2)C(=Nc2ccccc2)N1c1ccccc1 | 8.12 µM
CC1(C)CC(=O)C(C2C3=C(CC(C)(C)CC3=O)Oc3c(Br)cc(Br)cc32)=C(O)C1 (stereo not drawn) | 6.19 µM
Cc1cc(C)cc(NS(=O)(=O)c2ccc(-c3cnc(C4CC4)o3)cc2)c1 | 12.1 µM
COc1ccc2[nH]cc(C(=O)CCl)c2c1 | 1.21 µM

Read the next record carefully.
Query block: Item Cc1nc2c(O)c3c(c(O)c2nc1C)C1C=CC3CC1 has what recorded IC50?
Result block: 5.67 µM

----------
- protocol.description: NFkB reporter suppression in cystic fibrosis bronchial cells – cell-based, uHTS hits, panel, cytotoxicity readout, dose response (AID 624344)
- reported.conditions: CF bronchial epithelial cells, PAF-induced NFkB reporter inhibition; with PAF, mean of runs
As shown below, each of these compounds has a reported pIC50 value.
Here pIC50 is given on a logarithmic scale as minus log10 of the concentration in mol/L.

Would you please look over these solved cases?
compound | pIC50
COc1ccc(-c2csc(NC3OC(=O)c4c3ccc(OC)c4OC)n2)cc1OC (centres undefined) | 5.51
CCOc1ccc(CCN2C(=S)N([C@@H](CC(C)C)CN3CCCC3CN3C(=S)NC[C@@H]3CC(C)C)C[C@@H]2Cc2ccc(O)cc2)cc1 (some centres undefined) | 4.83
N#Cc1ccsc1NC(=O)c1ccc(Cl)c([N+](=O)[O-])c1 | 5.31
CN(C)c1ccc(C(C(=O)NCc2ccccc2)N(Cc2ccco2)C(=O)c2snc(C(N)=O)c2N)cc1 (centres undefined) | 5.51
Cc1cccc(N=c2oc3cc(O)ccc3cc2C(N)=O)c1 | 5.56
COc1ccc2c(=O)cc(-c3ccncc3)oc2c1OC | 5.40

Query block: Item Cc1cccc(C(=O)N[C@H](C(=O)Nc2nc3ccccc3[nH]2)C(C)C)c1 has what recorded pIC50?
Result block: 4.83

Query block: Item CCN1CCN(Cc2ccc(NC(=O)c3ccc(C)c(NC(=O)C(=O)c4c[nH]c5ccccc45)c3)cc2C(F)(F)F)CC1 has what recorded pIC50?
Result block: 5.90

Query block: Item CCOC(=O)C1(C(=O)OCC)COC(=O)C1CN1Cc2cc3ccccc3nc2C1 (centres undefined) has what recorded pIC50?
Result block: 5.13

----------
As shown below, each of these compounds has a reported IC50 value.
- protocol.description: NFkB reporter suppression in cystic fibrosis bronchial cells – cell-based, uHTS hits, panel, cytotoxicity readout, dose response (AID 624344)
- reported.conditions: CF bronchial epithelial cells, PAF-induced NFkB reporter inhibition; with PAF, mean of runs

Would you please look over these solved cases?
compound | IC50
COc1cc(/C=N/NC(=O)Nc2cccc3nsnc23)cc(OC)c1OC | 2.53 µM
CC(NC(=O)OCc1ccccc1)C(=O)Oc1cc2oc(=O)cc(-c3ccccc3)c2cc1Cl (stereo unspecified) | 1.34 µM
CCOC(=O)C1=C(CC)Nc2ccccc2N=C1NC(=O)c1oc2ccccc2c1C | 4.43 µM
Cc1ccc(S(=O)(=O)n2cc(-c3ccccc3)c3ccccc32)cc1 | 5.53 µM

Query block: Item O=C(Nc1ccc(OCC(=O)N2CCOCC2)cc1)c1cncc(Br)c1 has what recorded IC50?
Result block: 6.67 µM

Query block: Item COc1ccc(C2=Nn3c(nnc3-c3ccccc3OC)SC2)cc1OC1CCCC1 has what recorded IC50?
Result block: 0.229 µM

Query block: Item CC(C)c1ccccc1NC(=O)COC(=O)c1c2c(nc3ccccc13)CCN(Cc1ccccc1)C2 has what recorded IC50?
Result block: 6.98 µM

Query block: Item Cc1ccc(C)c(S(=O)(=O)N(C(=O)c2ccncc2)c2ccc(OC(=O)c3ccncc3)cc2)c1 has what recorded IC50?
Result block: 2.37 µM

Query block: Item C=CCN1c2ccccc2[C@]23C[C@@H](C(=O)OC)N(C(=O)c4ccc(Br)cc4)C2=NC(C(=O)OC)=C(C(=O)OC)[C@H]13 has what recorded IC50?
Result block: 9.35 µM

Query block: Item Cc1ccc(N=Cc2cc3c(cc2O)OC(N)=C(C#N)C3c2ccccc2)cc1 (stereo unspecified) has what recorded IC50?
Result block: 2.07 µM

Reference source: PubChem BioAssay AID624344
